- procedureText: non-covalent RecA intein splicing inhibitors, dose response, biochemical, cell-free, fluorescence, secondary screen (AID 449750)
Calls of active or inactive are those of the source. How the calls were made is not given here.
Parameter call: string, one of True for active, False for inactive

INSERT INTO results (molecule, grouplabel) VALUES
  ('COc1cc(/C=C(\C#N)c2nc3ccccc3o2)ccc1O', 'False'),
  ('O=C(CCl)Nc1ccc(N2CCCCCC2)cc1', 'True'),
  ('Cc1ccc(-c2[nH]nc3c2C(C)C(C#N)=C(N)O3)cc1 (configuration not stated)', 'False'),
  ('CCOC(=O)c1nn(-c2ccc(C)cc2)c(=O)c2c(N)scc12', 'False'),
  ('O=c1c2ccccc2nc2n1CCC2', 'True');

Request: Would you mind telling me which call this test gave Cc1[nH]nc2c1C1(CCN(C(=O)OCc3ccccc3)CC1)C(C#N)=C(N)O2 ?
Response: False

Request: Would you mind telling me which call this test gave CC(C)OC(=O)CN1C(=O)C(=O)c2ccccc21 ?
Response: True

* * *

- procedureText: non-covalent RecA intein splicing inhibitors, dose response, biochemical, cell-free, fluorescence, secondary screen (AID 449750)
Active and inactive are the calls of the source. No rule for the calls is given here.
Parameter call: string, one of active, inactive

Consider the following illustrative entries.
INSERT INTO measurements (compound, grouplabel) VALUES
  ('O=C(c1ccc2nc(Cc3cccc(Cl)c3)oc2c1)N1CCC(O)CC1', 'inactive'),
  ('CC1(C)Nc2ccc(O)cc2-c2c1ssc2=S', 'inactive'),
  ('CCc1ccc(/C=C/C(=O)C2C(=O)c3ccccc3C2=O)cc1', 'active');

Request: Would you mind telling me which call this test gave CCS(=O)(=O)c1ncc(Cl)c(C(=O)Nc2ccc(S(=O)(=O)N(C)c3ccccc3)cc2)n1 ?
Response: active

* * *

- procedureText: non-covalent RecA intein splicing inhibitors, dose response, biochemical, cell-free, fluorescence, secondary screen (AID 449750)
Calls of active or inactive are those of the source. The rule behind the calls is not given here.
Parameter call: string, one of yes for active, no for inactive

INSERT INTO measurements (compound, grouplabel) VALUES
  ('COc1ccc(Nc2ccc(OC)cc2)cc1', 'no'),
  ('CCOC(=O)CSc1nnc(NCC(=O)OC)c(=O)[nH]1', 'no');

Would you kindly look at the next entry?
Request: Would you mind telling me which call this test gave CCOc1ccc(NC(=O)C(c2ccccn2)N(C(=O)CCl)c2ccc(F)cc2)cc1 (stereo not drawn) ?
Response: yes

* * *

- procedureText: non-covalent RecA intein splicing inhibitors, dose response, biochemical, cell-free, fluorescence, secondary screen (AID 449750)
Active and inactive are the calls of the source. The rule behind the calls is not given here.
Parameter call: string, one of class 1 for active, class 0 for inactive

Consider the following illustrative entries.
INSERT INTO results (compound, grouplabel) VALUES
  ('CCOc1ccccc1Oc1coc2cc(OC(=O)c3ccco3)ccc2c1=O', 'class 0'),
  ('Cc1ccc(N2C(=O)NC(=O)/C(=C/c3ccc(OC(=O)c4cccs4)cc3)C2=O)cc1', 'class 1'),
  ('COC(=O)C(O)(c1c(C)[nH]n(-c2ccccc2)c1=O)C(F)(F)F (stereo not given)', 'class 1');

Request: Would you mind telling me which call this test gave O=C(CNC1=NCCC1)c1ccc(Cl)cc1 ?
Response: class 0

Request: Would you mind telling me which call this test gave CCOC(=O)Cc1[nH]nc2c1C(c1ccsc1)C(C#N)=C(N)O2 (stereo not given) ?
Response: class 0

Request: Would you mind telling me which call this test gave O=C1C(Cl)=C(N2CCCCC2)C(=O)N1c1ccccc1Cl ?
Response: class 0

Request: Would you mind telling me which call this test gave O=C1C(Cl)=C(N2CCCCC2)C(=O)C(Cl)=C1c1cnc(N2CCCCC2)s1 ?
Response: class 0

* * *

- procedureText: non-covalent RecA intein splicing inhibitors, dose response, biochemical, cell-free, fluorescence, secondary screen (AID 449750)
Activity calls are given as the source filed them. How the calls were made is not given here.
Parameter call: string, one of active, inactive

INSERT INTO measurements (molecule, grouplabel) VALUES
  ('Cc1cc(-c2[nH]nc3c2C(c2cccc(O)c2)C(C#N)=C(N)O3)c(C)s1 (stereo unspecified)', 'active'),
  ('Cc1c(N=C2C=CC(=O)c3ccccc32)c(=O)n(-c2ccccc2)n1C', 'active'),
  ('Nc1ccc2nc(N3CCOCC3)sc2c1', 'inactive');

Request: Would you mind telling me which call this test gave COC(CN(C(=O)CCl)C(C(=O)NC1CCCC(C)C1C)c1ccc(C)cc1)OC (stereo unspecified) ?
Response: active

Request: Would you mind telling me which call this test gave CC(=O)N(C)C1=C(N2CCOCC2)C(=O)c2ccccc2C1=O ?
Response: active

* * *

- procedureText: non-covalent RecA intein splicing inhibitors, dose response, biochemical, cell-free, fluorescence, secondary screen (AID 449750)
Active and inactive are the calls of the source. The rule behind the calls is not given here.
Parameter call: string, one of True = active, False = inactive

Consider the following illustrative entries.
INSERT INTO results (smilesentry, grouplabel) VALUES
  ('COc1ccc2[nH]c(CN3CCC(CO)(CCOc4ccccc4)CC3)c(C)c2c1', 'False'),
  ('O=c1cc(-c2ccc(Cl)c(Cl)c2)[nH][nH]1', 'True'),
  ('C/C(CC(=O)Nc1cc(C)ccn1)=N\NC(=O)c1ccc(C)cc1', 'False'),
  ('Cc1nc([N+](=O)[O-])c(Sc2nc3ccccc3[nH]2)n1Cc1ccccc1', 'False'),
  ('CCCCn1c(NC(=O)c2ccco2)c(S(=O)(=O)c2ccc(C)cc2)c2nc3ccccc3nc21', 'False');

Request: Would you mind telling me which call this test gave CC(/C=N/NC(=O)Cc1cc(=O)[nH][nH]1)=C\c1ccccc1 ?
Response: True

* * *

Measured AC50 by item
- procedureText: non-covalent RecA intein splicing inhibitors, dose response, biochemical, cell-free, fluorescence, secondary screen (AID 449750)
Calls of active or inactive are those of the source. The rule behind the calls is not given here.

// solved cases for AC50 follow
INSERT INTO assay_data (smilesentry, result) VALUES
  ('CC(C)(C)c1csc(Sc2ccc([N+](=O)[O-])cn2)n1', '14.2 µM'),
  ('CCc1ccc(NC(=O)C(=O)N/N=C(\C)CC(=O)Nc2ccccn2)cc1', '> 38 µM (inactive)'),
  ('COc1ccc(NC(=S)Nc2ccc3nsnc3c2)cc1', '25.2 µM'),
  ('CCN(CC)CCOc1ccc(/C(=C(\Cl)c2ccccc2)c2ccccc2)cc1', '9.57 µM'),
  ('COc1ccc(/C=C/C(=O)c2ccncc2)c2ccccc12', '18.6 µM');

Request: Quote AC50 reported for Cc1c(Cl)cccc1NC(=O)CSCc1cc(=O)[nH][nH]1 please.
Response: 33.3 µM

Request: Quote AC50 reported for CCOC(=O)CC1=NN(c2ccccc2)C(=O)C1 please.
Response: 36 µM

* * *

- procedureText: non-covalent RecA intein splicing inhibitors, dose response, biochemical, cell-free, fluorescence, secondary screen (AID 449750)
Activity calls are given as the source filed them. How the calls were made is not given here.
Parameter call: string, one of y (active), n (inactive)

Consider the following illustrative entries.
INSERT INTO measurements (smilesentry, grouplabel) VALUES
  ('O=C1C(Cl)=C(N2CCOCC2)C(=O)N1c1ccccc1Cl', 'n'),
  ('C#CCOC(=O)c1ccccc1C(=O)n1nnc2ccccc21', 'n'),
  ('Cc1cc(Sc2nnc(/N=C/N(C)C)s2)c2ccccc2n1', 'n'),
  ('COc1cccc(C(=O)O/N=C(\N)c2ccc([N+](=O)[O-])cc2)c1OC', 'n');

Would you kindly look at the next entry?
Request: Would you mind telling me which call this test gave Cc1[nH][nH]c(=O)c1C(c1ccc(-c2ccccc2C(=O)O)o1)c1c(C)[nH][nH]c1=O ?
Response: y

* * *

- procedureText: non-covalent RecA intein splicing inhibitors, dose response, biochemical, cell-free, fluorescence, secondary screen (AID 449750)
Activity calls are given as the source filed them. The rule behind the calls is not given here.
Parameter call: string, one of Y for active, N for inactive

Consider the following illustrative entries.
INSERT INTO assay_data (compound, grouplabel) VALUES
  ('Cc1cc(N/N=C/c2ccc(O)c(C)c2O)nc(-c2ccccc2O)n1', 'N'),
  ('CC(=O)n1cc(N(C(=O)CCl)c2ccc(C)cc2)c2ccccc21', 'Y'),
  ('Cc1ccc2c(c1)c1c3n2CCN(C(=O)CCl)C3CCC1 (stereo not given)', 'Y'),
  ('COc1ccc(Nc2cnn(-c3nc4ccccc4s3)c(=O)c2Cl)cc1', 'N'),
  ('COc1ccc(-c2nnc(Sc3nc4ccccc4o3)c3ccccc23)cc1', 'Y');

Request: Would you mind telling me which call this test gave Cc1cc(C(c2ccc(O)cc2)c2cc(C)c(O)cc2C)c(C)cc1O ?
Response: Y

* * *

- procedureText: non-covalent RecA intein splicing inhibitors, dose response, biochemical, cell-free, fluorescence, secondary screen (AID 449750)
Calls of active or inactive are those of the source. The rule behind the calls is not given here.
Parameter call: string, one of 1 = active, 0 = inactive

Request: Would you mind telling me which call this test gave Cc1nc(COC(=O)c2cc(O)c3ccccc3c2O)cs1 ?
Response: 1

Request: Would you mind telling me which call this test gave COCc1[nH]nc2c1C(c1ccccc1F)C(C#N)=C(N)O2 (configuration not stated) ?
Response: 0

Request: Would you mind telling me which call this test gave CC1CCc2c(sc3nc(C(C)(C)C)nc(N4CCN(C(=O)CCl)CC4)c23)C1 (configuration not stated) ?
Response: 1
